Below, each entry is listed with its recorded pIC50.
System: TNAP (Homo sapiens, UniProt P05186)
Construct: made in house; host or cells: COS-1 cells, transient expression; dialyzed serum-free conditioned medium
Sequence (P05186 18-501 limits assumed): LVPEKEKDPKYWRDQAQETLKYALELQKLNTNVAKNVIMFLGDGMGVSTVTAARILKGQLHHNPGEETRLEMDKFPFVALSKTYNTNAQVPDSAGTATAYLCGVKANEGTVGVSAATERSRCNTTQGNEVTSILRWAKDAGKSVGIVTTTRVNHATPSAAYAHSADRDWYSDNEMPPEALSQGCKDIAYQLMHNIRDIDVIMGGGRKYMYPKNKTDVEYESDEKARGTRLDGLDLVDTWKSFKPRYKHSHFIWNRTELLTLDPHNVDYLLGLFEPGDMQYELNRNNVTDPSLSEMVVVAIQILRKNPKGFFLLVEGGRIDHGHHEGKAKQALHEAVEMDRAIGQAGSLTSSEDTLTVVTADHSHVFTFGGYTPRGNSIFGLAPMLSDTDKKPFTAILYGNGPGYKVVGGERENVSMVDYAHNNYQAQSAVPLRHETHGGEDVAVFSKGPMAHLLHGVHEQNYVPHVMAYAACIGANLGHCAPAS
Procedure Details: TNAP luminescent assay (CDP-star substrate, 100 mM DEA)
Assay type: biochemical
Experimental Conditions: bisarylsulfonamide series; NA = inactive (up to 100 µM); read-out: TNAP-Lumi IC50
pIC50: −log10 of the molar value.
Quantity: pIC50

• COc1cccc(S(=O)(=O)Nc2cnc3ccccc3c2)c1 [MLS-0090844] = 4.59
• COc1ccc(OC)c(S(=O)(=O)Nc2cccnc2)c1 [MLS-0068486] = 6.04
